Every entry's value here was drawn from patent US20250339569A1.

- target.system: human carbonic anhydrase 9 (CAIX) (human, UniProt Q16790 38-459)
- measurement.notes: FACS competition on HT-29 cells against tracer 3BP-2776; pIC50 category C = pIC50 6.1-7.0
- Method: CAIX-expressing human HT-29 colorectal cancer cells (DSMZ, RRID: CVCL_0320) were cultured in McCoys's 5A modified medium (Biochrom, #F1015) including 10% fetal calf serum (FCS), 2 mM L-glutamine, 100 U/ml penicillin and 100 μg/mL streptomycin. […] Cells were washed twice with ice-cold FACS buffer and analyzed in an Attune NxT flow cytometer (Thermo Fisher). Median fluorescence intensities (MFI) of the APC/Cy5-channel were calculated by Attune NxT software.
Starred links: 1 amine or outer side, 2 acyl side, 3 side chain; linkers in the order of their positions; H or OH if unused. Positions of bridges follow the written chain, without caps; N, C: chain ends. Non-standard residues stand in square brackets, D forms with d. mXylylene = c1cc(C[*:1])cc(C[*:2])c1; Aib = CC(C)(N)C(=O)O
experimental.readout: pIC50

Entry Ac-VYCEG[Aib]WLTWQC-NH2 (linker 3-12 via mXylylene; SMILES CC(=O)N[C@H](C(=O)N[C@@H](Cc1ccc(O)cc1)C(=O)N[C@H]1CSCc2cccc(c2)CSC[C@@H](C(N)=O)NC(=O)[C@H](CCC(N)=O)NC(=O)[C@H](Cc2c[nH]c3ccccc23)NC(=O)[C@H]([C@@H](C)O)NC(=O)[C@H](CC(C)C)NC(=O)[C@H](Cc2c[nH]c3ccccc23)NC(=O)C(C)(C)NC(=O)CNC(=O)[C@H](CCC(=O)O)NC1=O)C(C)C, also called Ac-Val-Tyr-[Cys(3MeBn)-Glu-Gly-Aib-Trp-Leu-Thr-Trp-Gln-Cys]-NH2) [3BP-3061] has what pIC50?
6.1 to 7 pic50
